Test system: Acinetobacter baumannii strains
Test: Antibiotic susceptibility test (CLSI disk diffusion test method, read per CLSI 2016); also: key: ‘S’ means susceptible; ‘I’ means intermediate; ‘R’ means resistant
Format: cell-based
Conditions: host strain YMC14/03/R2144
Measurement Kind: antibiotic susceptibility class

Here are 5 compounds together with their reported answers.
Compound	Measurement Kind	Data Value
C[C@H]1COc2c(N3CCN(C)CC3)c(F)cc3c(=O)c(C(=O)O)cn1c23 [Levofloxacin, levofloxacin]	antibiotic susceptibility class	R
C[C@@H](O)[C@H]1C(=O)N2C(C(=O)O)=C(S[C@@H]3CN[C@H](C(=O)N(C)C)C3)[C@H](C)[C@H]12 [Meropenem, meropenem]	antibiotic susceptibility class	R
CN(C)c1ccc(O)c2c1C[C@H]1C[C@H]3[C@H](N(C)C)C(O)=C(C(N)=O)C(=O)[C@@]3(O)C(O)=C1C2=O [Minocycline, minocycline]	antibiotic susceptibility class	S
CCN1CCN(C(=O)N[C@@H](C(=O)N[C@@H]2C(=O)N3[C@@H]2SC(C)(C)[C@@H]3C(=O)O)c2ccccc2)C(=O)C1=O [Piperacillin, piperacillin]	antibiotic susceptibility class	R
CN(C)c1cc(NC(=O)CNC(C)(C)C)c(O)c2c1C[C@H]1C[C@H]3[C@H](N(C)C)C(O)=C(C(N)=O)C(=O)[C@@]3(O)C(O)=C1C2=O [Tigecycline, tigecycline]	antibiotic susceptibility class	S

Short answer for C[C@@H](O)[C@H]1C(=O)N2C(C(=O)O)=C(SCCN=CN)C[C@H]12 [Imipenem, imipenem] : antibiotic susceptibility class was R

----------
Tested on: Acinetobacter baumannii strains
Experiment: Antibiotic susceptibility test (CLSI disk diffusion test method, read per CLSI 2016); also: key: ‘S’ means susceptible; ‘I’ means intermediate; ‘R’ means resistant
Format: cell-based
Conditions: host strain YMC14/02/R2758
Measurement Kind: antibiotic susceptibility class

> print(dat)
                            molecule.smiles  data.value
1  CN(C)c1cc(NC(=O)CNC(C)(C)C)c(O)c2c1C[C@H]1C[C@H]3[C@H](N(C)C)C(O)=C(C(N)=O)C(=O)[C@@]3(O)C(O)=C1C2=O           R
2  C[C@@H](O)[C@H]1C(=O)N2C(C(=O)O)=C(S[C@@H]3CN[C@H](C(=O)N(C)C)C3)[C@H](C)[C@H]12           R
3  CO/N=C(\C(=O)N[C@@H]1C(=O)N2C(C(=O)O)=C(COC(C)=O)CS[C@H]12)c1csc(N)n1           R

----------
System: Acinetobacter baumannii strains
Test: Antibiotic susceptibility test (CLSI disk diffusion test method, read per CLSI 2016); also: key: ‘S’ means susceptible; ‘I’ means intermediate; ‘R’ means resistant
Format: cell-based
Conditions: host strain YMC17/03/R4607
Measurement Kind: susceptibility category (S/I/R)

Here are 4 compounds together with their reported answers.
Compound	Measurement Kind	Data Value
NCC[C@H](O)C(=O)N[C@@H]1C[C@H](N)[C@@H](O[C@H]2O[C@H](CN)[C@@H](O)[C@H](O)[C@H]2O)[C@H](O)[C@H]1O[C@H]1O[C@H](CO)[C@@H](O)[C@H](N)[C@H]1O [Amikacin, amikacin]	susceptibility category (S/I/R)	R
C[C@@H](O)[C@H]1C(=O)N2C(C(=O)O)=C(SCCN=CN)C[C@H]12 [Imipenem, imipenem]	susceptibility category (S/I/R)	R
C[C@@H](O)[C@H]1C(=O)N2C(C(=O)O)=C(S[C@@H]3CN[C@H](C(=O)N(C)C)C3)[C@H](C)[C@H]12 [Meropenem, meropenem]	susceptibility category (S/I/R)	R
C[C@H]1COc2c(N3CCN(C)CC3)c(F)cc3c(=O)c(C(=O)O)cn1c23 [Levofloxacin, levofloxacin]	susceptibility category (S/I/R)	R

Short answer for CN(C)c1ccc(O)c2c1C[C@H]1C[C@H]3[C@H](N(C)C)C(O)=C(C(N)=O)C(=O)[C@@]3(O)C(O)=C1C2=O [Minocycline, minocycline] : susceptibility category (S/I/R) was R

Short answer for CN(C)c1cc(NC(=O)CNC(C)(C)C)c(O)c2c1C[C@H]1C[C@H]3[C@H](N(C)C)C(O)=C(C(N)=O)C(=O)[C@@]3(O)C(O)=C1C2=O [Tigecycline, tigecycline] : susceptibility category (S/I/R) was S

----------
Test system: Acinetobacter baumannii strains
Test: Antibiotic susceptibility test (CLSI disk diffusion test method, read per CLSI 2016); also: key: ‘S’ means susceptible; ‘I’ means intermediate; ‘R’ means resistant
Format: cell-based
Conditions: host strain YMC17/03/B4730
Measurement Kind: susceptibility category (S/I/R)

> print(dat)
                            molecule.smiles                  measured.target  data.value
1  CCN1CCN(C(=O)N[C@@H](C(=O)N[C@@H]2C(=O)N3[C@@H]2SC(C)(C)[C@@H]3C(=O)O)c2ccccc2)C(=O)C1=O  Acinetobacter baumannii strains           R
2  CN(C)c1cc(NC(=O)CNC(C)(C)C)c(O)c2c1C[C@H]1C[C@H]3[C@H](N(C)C)C(O)=C(C(N)=O)C(=O)[C@@]3(O)C(O)=C1C2=O  Acinetobacter baumannii strains           R
3  CN(C)c1ccc(O)c2c1C[C@H]1C[C@H]3[C@H](N(C)C)C(O)=C(C(N)=O)C(=O)[C@@]3(O)C(O)=C1C2=O  Acinetobacter baumannii strains           S

----------
Tested on: Acinetobacter baumannii strains
Assay: Antibiotic susceptibility test (CLSI disk diffusion test method, read per CLSI 2016); also: key: ‘S’ means susceptible; ‘I’ means intermediate; ‘R’ means resistant
Assay type: cell-based
Details: host strain YMC15/02/T28
Measurement Kind: susceptibility category (S/I/R)

> print(dat)
                                   compound                 measurement.kind  data.value
1  C[C@@H](O)[C@H]1C(=O)N2C(C(=O)O)=C(S[C@@H]3CN[C@H](C(=O)N(C)C)C3)[C@H](C)[C@H]12 [Meropenem, meropenem]  susceptibility category (S/I/R)           R
2  CN(C)c1ccc(O)c2c1C[C@H]1C[C@H]3[C@H](N(C)C)C(O)=C(C(N)=O)C(=O)[C@@]3(O)C(O)=C1C2=O [Minocycline, minocycline]  susceptibility category (S/I/R)           S
3  CO/N=C(\C(=O)N[C@@H]1C(=O)N2C(C(=O)O)=C(COC(C)=O)CS[C@H]12)c1csc(N)n1 [Cefotaxime, cefotaxime]  susceptibility category (S/I/R)           R

----------
System: Acinetobacter baumannii strains
Test: Antibiotic susceptibility test (CLSI disk diffusion test method, read per CLSI 2016); also: key: ‘S’ means susceptible; ‘I’ means intermediate; ‘R’ means resistant
Format: cell-based
Conditions: host strain YMC17/01/B10087
Measurement Kind: antibiotic susceptibility S/I/R

Compound	antibiotic susceptibility S/I/R
CN(C)c1ccc(O)c2c1C[C@H]1C[C@H]3[C@H](N(C)C)C(O)=C(C(N)=O)C(=O)[C@@]3(O)C(O)=C1C2=O [Minocycline, minocycline]	S
C[C@@H](O)[C@H]1C(=O)N2C(C(=O)O)=C(SCCN=CN)C[C@H]12 [Imipenem, imipenem]	R
CN(C)c1cc(NC(=O)CNC(C)(C)C)c(O)c2c1C[C@H]1C[C@H]3[C@H](N(C)C)C(O)=C(C(N)=O)C(=O)[C@@]3(O)C(O)=C1C2=O [Tigecycline, tigecycline]	S
CCN1CCN(C(=O)N[C@@H](C(=O)N[C@@H]2C(=O)N3[C@@H]2SC(C)(C)[C@@H]3C(=O)O)c2ccccc2)C(=O)C1=O [Piperalillinc]	R
C[C@@H](O)[C@H]1C(=O)N2C(C(=O)O)=C(S[C@@H]3CN[C@H](C(=O)N(C)C)C3)[C@H](C)[C@H]12 [Meropenem, meropenem]	R

Kindly consider the entry below.
Note to self: antibiotic susceptibility S/I/R of CO/N=C(\C(=O)N[C@@H]1C(=O)N2C(C(=O)O)=C(COC(C)=O)CS[C@H]12)c1csc(N)n1 [Cefotaxime, cefotaxime] with Acinetobacter baumannii strains was R

----------
Tested on: Acinetobacter baumannii strains
Experiment: Antibiotic susceptibility test (CLSI disk diffusion test method, read per CLSI 2016); also: key: ‘S’ means susceptible; ‘I’ means intermediate; ‘R’ means resistant
Type: cell-based
Details: host strain YMC17/03/R348
Measurement Kind: susceptibility category (S/I/R)

> print(dat)
                            molecule.smiles                 measurement.kind  data.value
1  CN(C)c1ccc(O)c2c1C[C@H]1C[C@H]3[C@H](N(C)C)C(O)=C(C(N)=O)C(=O)[C@@]3(O)C(O)=C1C2=O  susceptibility category (S/I/R)           S
2  C[C@@H](O)[C@H]1C(=O)N2C(C(=O)O)=C(S[C@@H]3CN[C@H](C(=O)N(C)C)C3)[C@H](C)[C@H]12  susceptibility category (S/I/R)           R
3  CO/N=C(\C(=O)N[C@@H]1C(=O)N2C(C(=O)O)=C(COC(C)=O)CS[C@H]12)c1csc(N)n1  susceptibility category (S/I/R)           R

----------
Test system: Acinetobacter baumannii strains
Test: Antibiotic susceptibility test (CLSI disk diffusion test method, read per CLSI 2016); also: key: ‘S’ means susceptible; ‘I’ means intermediate; ‘R’ means resistant
Type: cell-based
Conditions: host strain YMC17/02/P523

Compound	antibiotic susceptibility S/I/R
CC(C)(O/N=C(\C(=O)N[C@@H]1C(=O)N2C(C(=O)[O-])=C(C[n+]3ccccc3)CS[C@H]12)c1csc(N)n1)C(=O)O [Ceftazidime, ceftazidime]	R
NCC[C@H](O)C(=O)N[C@@H]1C[C@H](N)[C@@H](O[C@H]2O[C@H](CN)[C@@H](O)[C@H](O)[C@H]2O)[C@H](O)[C@H]1O[C@H]1O[C@H](CO)[C@@H](O)[C@H](N)[C@H]1O [Amikacin, amikacin]	S
CO/N=C(\C(=O)N[C@@H]1C(=O)N2C(C(=O)O)=C(COC(C)=O)CS[C@H]12)c1csc(N)n1 [Cefotaxime, cefotaxime]	R
